Can you tell me optical density for the items I'm about to list?
biological target: human Fc (human); test: ELISA; negative control
Numbers only, in OD.

Examples with their reported optical density follow.
365_C09 (antibody, V domains shown) VH: EVQLLESGGGLVQPGGSLRLSCAASGFTFSDYGMNWVRQAPGKGLEWVSGINYNGGYKSYADSVKGRFTISRDNSKNTLYLQMNSLRAEDTAVYYCARSATWHDTHLDYWGQGTLVTVSS VL: DIQMTQSPSSLSASVGDRVTITCRASQSIVSYVNWYQQKPGKAPKLLIYAATSRASGVPSRFSGSGSGTDFTLTISSLQPEDFATYYCQQSYDTPLTFGGGTKVEIK	0.266
370_E07 (antibody, V domains shown) VH: EVQLLESGGGLVQPGGSLRLSCAASGFTFDSYSMNWVRQAPGKGLEWVANINYNGGYTGYADSVKGRFTISRDNSKNTLYLQMNSLRAEDTAVYYCARSATWHDTHLDYWGQGTLVTVSS VL: DIQMTQSPSSLSASVGDRVTITCRASQSILTYLNWYQQKPGKAPKLLIYAATSRASGVPSRFSGSGSGTDFTLTISSLQPEDFATYYCQQSYDNPLTFGGGTKVEIK	0.379
376_A10 (antibody, V domains shown) VH: EVQLLESGGGLVQPGGSLRLSCAASGFTFSDYGMNWVRQAPGKGLEWVSNINYNSGYKGYADSVKGRFTISRDNSKNTLYLQMNSLRAEDTAVYYCARSANWHDTALDYWGQGTLVTVSS VL: DIQMTQSPSSLSASVGDRVTITCRASQSILSYLNWYQQKPGKAPKLLIYAATSRASGVPSRFSGSGSGTDFTLTISSLQPEDFATYYCQQSYESPLTFGGGTKVEIK	0.279
373_B08 (antibody, V domains shown) VH: EVQLLESGGGLVQPGGSLRLSCAASGFTFDSYSMNWVRQAPGKGLEWVANINYNSGYKGYADSVKGRFTISRDNSKNTLYLQMNSLRAEDTAVYYCARSATWHDTHLDYWGQGTLVTVSS VL: DIQMTQSPSSLSASVGDRVTITCRASQSILTYLNWYQQKPGKAPKLVIYAATSLASGVPSRFSGSGSGTDFTLTISSLQPEDFATYYCQQSYENPLTFGGGTKVEIK	0.17

Next up:
Input line: Entry 374_H03 (antibody, V domains shown) VH: EVQLLESGGGLVQPGGSLRLSCAASGFTFSSYGMNWVRQAPGKGLEWVSGINYNSGYKSYADSVKGRFTISRDNSKNTLYLQMNSLRAEDTAVYYCARSANWHDTALDYWGQGTLVTVSS VL: DIQMTQSPSSLSASVGDRVTITCRASQSILSYVNWYQQKPGKAPKLVIYAATSRASGVPSRFSGSGSGTDFTLTISSLQPEDFATYYCQQSYDSPLTFGGGTKVEIK : reported optical density = ?
Output line: 0.162
